Listed here: items and their measured composite z-score.
assay: small-molecule microarray binders of probe aLefty2, primary screen, biochemical, biotinylated probe, 635/667 nm fluorescence (AID 1094); details: higher = more signal;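 also: score merges spot fluorescence near 667 nm with spot signal-to-noise ratio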

C[C@@H]1CC[C@H]2C(=O)O[C@@H](COc3ccc(C(C)(C)C)cc3)CN2[C@@H]1c1ccc(Br)cc1 | 0.464

The molecule CCO[C@H](c1cc(OC)cc([N+](=O)[O-])c1OC)[C@H](C)C=CCC(=O)OC showed composite z-score equal to -0.233

The molecule COC(=O)[C@H]1[C@@H](O)[C@@]2(O)c3ccccc3O[C@@]2(c2ccccc2)[C@@H]1c1ccccc1 showed composite z-score equal to -0.0324

The molecule CC[C@@H](c1ccccc1)n1c(=O)n2n(c1=O)[C@H]1[C@H](O)[C@@H]3O[C@@H]3C(=O)[C@H]1CC2 showed composite z-score equal to 0.444

The molecule CO[C@H]1COC(=O)CC=C[C@H](C)[C@@H](OC)COC(=O)[C@H](C)COC(=O)CC=C[C@@H]1C showed composite z-score equal to -0.268

The molecule C#CCCCON=C1C[C@@H](O)[C@@H](O)[C@@H]2[C@@H]3C(=O)N(C(C)(C)C)C(=O)[C@@H]3CC[C@H]12 showed composite z-score equal to 0.599

The molecule CCCNC(=O)OC[C@H]1O[C@H](CCON=C(C)CCN2CCCc3nc(C)c(C)cc32)C=C[C@@H]1Oc1ccc(OC)cc1 showed composite z-score equal to 0.0408
